# Test system: A549
# assay-explanation: Anticancer activity against human A549 cells assessed as reduction in cell viability by MTT assay
# Format: functional, cell-based
quantity-name: pIC50
API: returns pIC50 as number; meaning -log10 of concentration in mol/L.

So, `C[C@H]1COc2c(Nn3c(=O)[nH][nH]c3=O)c(F)cc3c(=O)c(C(=O)O)cn1c23` ? Its pIC50 was 4.46

* * *

# System: SMMC-7721
# assay-explanation: Antiproliferative activity against human SMMC-7721 cells assessed as reduction in cell viability
# Type: functional, cell-based
Entries and their measured pIC50 follow.
API: returns pIC50 as number; meaning -log10 of concentration in mol/L.

Solved entries:
# compound-structure, experimental-value
records = [
    ("CCn1cc(-c2nc(SCc3nnc(-c4ccc(F)cc4)o3)n(CN(C)C)n2)c(=O)c2cc(F)c(N3CCN(C)CC3)cc21", 5.82),
    ("CCn1cc(-c2nnc(SCc3nnc(-c4ccc(F)cc4)o3)[nH]2)c(=O)c2cc(F)c(N3CCN(C)CC3)cc21", 5.42),
]

// below: pIC50 requested for another compound
Noted pIC50 for `CCn1cc(-c2nnc(SCc3nnc(-c4ccccc4OC)o3)[nH]2)c(=O)c2cc(F)c(N3CCN(C)CC3)cc21` , tested on SMMC-7721: 5.42

* * *

# Test system: HL-60
# assay-explanation: Cytotoxicity against human HL-60 cells assessed as reduction in cell viability by MTT assay
# Assay type: functional, cell-based
quantity-name: IC50

So, `O=C(N/N=C/c1ccc([N+](=O)[O-])cc1)c1cn(C2CC2)c2cc(N3CCNCC3)c(F)cc2c1=O` ? Its IC50 was 25 µM

So, `C[C@H]1COc2c(N3CCN(C)CC3)c(F)cc3c(=O)c(-c4nnc(S)o4)cn1c23` ? Its IC50 was > 50 µM

So, `COc1ccccc1-c1nnc(CSc2nnc(-c3cn4c5c(c(N6CCN(C)CC6)c(F)cc5c3=O)OC[C@@H]4C)o2)o1` ? Its IC50 was 2.2 µM

So, `O=C(O)c1cn(C2CC2)c2cc(N3CCNCC3)c(F)cc2c1=O` ? Its IC50 was > 150 µM

* * *

# assay-explanation: Cytotoxicity against Chinese hamster CHO cells assessed as reduction in cell viability incubated for 48 hrs by MTT assay
# Assay type: toxicity, cell-based, Cricetulus griseus
quantity-name: IC50 at 48 h (µM)
Respond with the bare value in µM.

Solved entries:
# molecule, quantity-name, experimental-value
data = [
    ("COc1ccc(/C=N/n2c(-c3cn4c5c(c(N6CCN(C)CC6)c(F)cc5c3=O)OCC4C)nn(CN(C)C)c2=S)cc1O (stereo unspecified)", "IC50 at 48 h", 0.14),
    ("CC1COc2c(N3CCN(C)CC3)c(F)cc3c(=O)c(-c4n[nH]c(=S)n4/N=C/c4ccccc4O)cn1c23 (stereo unspecified)", "IC50 at 48 h", 10.5),
    ("COc1ccc(/C=N/n2c(-c3cn4c5c(c(N6CCN(C)CC6)c(F)cc5c3=O)OCC4C)n[nH]c2=S)cc1O (stereo unspecified)", "IC50 at 48 h", 10.5),
    ("CC1COc2c(N3CCN(C)CC3)c(F)cc3c(=O)c(-c4nn(CN(C)C)c(=S)n4/N=C/c4ccccc4O)cn1c23 (stereo unspecified)", "IC50 at 48 h", 0.14),
]

So, COc1cc(/C=N/n2c(-c3cn4c5c(c(N6CCN(C)CC6)c(F)cc5c3=O)OCC4C)nn(CN(C)C)c2=S)ccc1O (stereo unspecified) ? Its IC50 at 48 h was 0.14

So, COc1cc(/C=N/n2c(-c3cn4c5c(c(N6CCN(C)CC6)c(F)cc5c3=O)OCC4C)n[nH]c2=S)ccc1O (stereo unspecified) ? Its IC50 at 48 h was 10.5

Source: ChEMBL document CHEMBL5233217
